All values here come from patent US20130287823A1.

Experiment: Dissolvability of midodrine in monomers (visual observation)
Format: physicochemical
Conditions: 3 parts by weight midodrine in 100 parts by weight of the monomer; observed immediately and after 7 days at 25° C.
Assay Metric: DISSOLVABILITY OF MIDODRINE

1. C=C(C)C(=O)OCCCCCCCCCCCC [DODECYL METHACRYLATE]	LOW
2. C=C(C)C(=O)OCC(CC)CCCC (stereo not drawn) [2-ETHYLHEXYL METHACRYLATE]	LOW
3. C=CC(=O)O [ACRYLIC ACID]	HIGH
4. C=CN1CCCC1=O [1-VINYL-2-PYRROLIDONE]	HIGH
5. C=C(C)C(=O)OCCCC [BUTYL METHACRYLATE]	LOW
6. C=CC(=O)OCC [ETHYL ACRYLATE]	LOW
